These data points were gathered from PubChem BioAssay (NCI).

system: HCT-15 colon; test: NCI tumour cell line growth inhibition, 48 h
OBSERVATION_TYPE: TGI

[[record]]
compound = "O=C(Nc1cccc(NS(=O)(=O)c2ccc(F)cc2)c1)c1ccc(-c2ccccc2)cc1"
reported_value = "18.3 µM"

[[record]]
compound = "c1ccc2nc3c(nc2c1)sc1nc2ccccc2n13"
reported_value = "> 100 µM"

[[record]]
compound = "CC1(c2ccccc2)CC12C(=O)NC(=O)NC2=O (stereo not drawn)"
reported_value = "> 100 µM"


====

# reported TGI; entries follow
tested on: HCC-2998 colon; assay: NCI tumour cell line growth inhibition, 48 h
OBSERVATION_TYPE: TGI

[[record]]
compound = "COC1/C=C/C(C)C(C(C)C(OC)C(C)CCC(=O)C(C)C(CC(=O)O)OC)OC(=O)/C=C/C=C(\\C)CC(OC)C(OC)C2=CC(=O)O[C@@H](C(C)C(OC)CC(OC)/C=C/C(C)C(O)C1)[C@H]2O (some centres not stated)"
reported_value = "> 1.07 µM"

[[record]]
compound = "N#C[C@]12CC3(CC[C@H]1CC1(C2)OCCO1)OCCO3"
reported_value = "> 100 µM"

[[record]]
compound = "Nc1ccc2c(c1)N(C(=O)CCCC(=O)N1CC(CCl)c3ccc(N)cc31)CC2CCl (configuration not stated)"
reported_value = "> 50 µM"

[[record]]
compound = "Cc1ccc(C2=[N+]([O-])c3ccccc3C2=O)cc1"
reported_value = "> 100 µM"

[[record]]
compound = "CC(C)SC1SCC2C(=O)N(C)C3(CC3C)C(=O)OCC(NC(=O)c3nc4ccccc4cc3O)C(=O)NC(C)C(=O)N(C)C1C(=O)N(C)C1(CC1C)C(=O)OCC(NC(=O)c1nc3ccccc3cc1O)C(=O)NC(C)C(=O)N2C (configuration not stated)"
reported_value = "< 0.0001 µM"

[[record]]
compound = "CSC1=C(C)S/C(=C\\c2ccc(/C=C3\\SC(C)=C(SC)S3)cc2)S1"
reported_value = "> 100 µM"

[[record]]
compound = "Cc1cccc2c1CC(C1OC(=O)c3c(C)cccc31)C2=O (configuration not stated)"
reported_value = "> 100 µM"


====

system: MOLT-4 leukemia; assay: NCI tumour cell line growth inhibition, 48 h
Where a SMILES comes first, the peptide text is derived from it. The star is where a group is joined. Boc = CC(C)(C)OC(=O)*
# reported TGI; entries follow
OBSERVATION_TYPE: TGI

[[record]]
compound = "O=C1c2scc(-c3ccc(F)cc3)c2-n2cccc21"
reported_value = "> 100 µM"

[[record]]
compound = "COC(=O)C(Cc1c[nH]c2ccccc12)NC(=O)C(Cc1c[nH]c2ccccc12)NC(=O)C(Cc1c[nH]c2ccccc12)NC(=O)C(Cc1c[nH]c2ccccc12)NC(=O)C(Cc1c[nH]c2ccccc12)NC(=O)OC(C)(C)C (centres undefined) (Boc-WWWWW-OMe; configuration not given here)"
reported_value = "> 100 µM"

[[record]]
compound = "CN(C)CCN1N=Nc2cccc3cccc1c23"
reported_value = "> 87.3 µM"

[[record]]
compound = "Cc1nc2ccc(S(=O)(=O)Nc3ccccn3)cc2c(=O)n1NS(=O)(=O)c1ccccn1"
reported_value = "> 100 µM"


====

# reported TGI; entries follow
test system: SK-MEL-2 melanoma; assay: NCI tumour cell line growth inhibition, 48 h
OBSERVATION_TYPE: TGI (µM)

[[record]]
smiles_record = "CC[N+](C)(C)c1ccc(C(=C2C=CC(=[N+](C)C)C=C2)c2ccc(N(C)C)cc2)cc1"
observation_type = "TGI"
unit_spec = "µM"
relation = "="
reported_value = 56.8

[[record]]
smiles_record = "COc1ccc(C[C@H]2NC[C@H](OC(C)=O)[C@H]2OC(C)=O)cc1"
observation_type = "TGI"
unit_spec = "µM"
relation = "="
reported_value = 0.627

[[record]]
smiles_record = "Cc1c2ncccc2c(C)c2c1[nH]c1ccc(O)cc12"
observation_type = "TGI"
unit_spec = "µM"
relation = "="
reported_value = 97.5

[[record]]
smiles_record = "COc1nc(N)nc2c1n(C)c[n+]2C"
observation_type = "TGI"
unit_spec = "µM"
relation = ">"
reported_value = 100


====

# reported TGI; entries follow
test system: SF-539 CNS; experiment: NCI tumour cell line growth inhibition, 48 h
OBSERVATION_TYPE: TGI

[[record]]
smiles_record = "CCOC(=O)NC(OCCN(C)C)(C(F)(F)F)C(F)(F)F"
reported_value = "> 100 µM"

[[record]]
smiles_record = "CC(=O)CC(=O)CCCC(=O)Nc1ccc(Cl)cc1Cl"
reported_value = "> 100 µM"

[[record]]
smiles_record = "C(=C\\c1ccccc1)/Cn1nc(-c2ccccc2)nc1-c1cnccn1"
reported_value = "> 100 µM"

[[record]]
smiles_record = "O=c1oc2ccccc2cc1-c1ccc([N+](=O)[O-])cc1"
reported_value = "> 100 µM"

[[record]]
smiles_record = "NS(=O)(=O)c1ccc(NC(=S)/N=C/c2c(O)c3ccccc3[nH]c2=O)cc1"
reported_value = "> 100 µM"


====

test system: OVCAR-8 ovarian; experiment: NCI tumour cell line growth inhibition, 48 h
# reported TGI; entries follow
OBSERVATION_TYPE: TGI

[[record]]
molecule = "CCC12CCC(O)C1N(C)CCC2Sc1ccccc1 (stereo not given)"
observation_type = "TGI"
reported_value = "> 100 µM"

[[record]]
molecule = "O=C(/C=C/c1ccsc1)c1cccs1"
observation_type = "TGI"
reported_value = "> 10 µM"

[[record]]
molecule = "CN(C)c1ccc(/C=C(\\NC(=O)c2ccccc2)c2nc3ccccc3c(=O)o2)cc1"
observation_type = "TGI"
reported_value = "> 100 µM"

[[record]]
molecule = "CCN(CC)c1ccc2[nH]c3c(C(N)=O)cc(=O)c(=O)c=3oc2c1"
observation_type = "TGI"
reported_value = "> 100 µM"

[[record]]
molecule = "O=c1cnn(C/C=C/CP(=O)(O)O)c(=O)[nH]1"
observation_type = "TGI"
reported_value = "> 100 µM"


====

system: NCI-H522 lung; assay: NCI tumour cell line growth inhibition, 48 h
OBSERVATION_TYPE: TGI

[[record]]
compound = "Cc1c(C(=O)N/N=C/c2ccc(O)cc2)nnn1-c1ccnc2c(C(F)(F)F)cccc12"
target_under_test = "NCI-H522 lung"
reported_value = "> 100 µM"

[[record]]
compound = "NC(=O)c1csc(C2O[C@@H](COP(=O)(O)OP(=O)(O)OC[C@H]3OC(n4cnc5c(N)ncnc54)[C@H](O)[C@@H]3O)[C@H](O)[C@@H]2O)n1 (stereo partly drawn)"
target_under_test = "NCI-H522 lung"
reported_value = "> 100 µM"

[[record]]
compound = "O=C1C2c3[nH]c4ccccc4c3C3CCSCC3C2C(=O)N1c1ccccc1 (stereo not drawn)"
target_under_test = "NCI-H522 lung"
reported_value = "> 100 µM"


====

test system: HCT-15 colon; test: NCI tumour cell line growth inhibition, 48 h
# reported log10 TGI; entries follow
OBSERVATION_TYPE: log10 TGI (log10 of the value in µM)

[[record]]
molecule = "CCNCCNc1cc(-c2ccc(Cl)cc2)c(C#N)c2nc3ccccc3n12"
target_under_test = "HCT-15 colon"
reported_value = 0.42

[[record]]
molecule = "c1ccc(Oc2c3ccccc3nc3ccccc23)cc1"
target_under_test = "HCT-15 colon"
reported_value = 1.09

[[record]]
molecule = "COC(=O)/C=C1\\SC(=Nc2ccc(C(F)(F)F)cc2)N(CCc2c[nH]c3ccccc23)C1=O"
target_under_test = "HCT-15 colon"
reported_value = 0.47

[[record]]
molecule = "CC1=C2C(=CC(C)(CO)C2O)C(=O)C(C)(O)C12CC2 (configuration not stated)"
target_under_test = "HCT-15 colon"
reported_value = -1.34

[[record]]
molecule = "O=C(Nc1ccccc1)O/N=C1/CCCC/C1=C\\c1ccccc1"
target_under_test = "HCT-15 colon"
reported_value = 1.37


====

test system: SF-295 CNS; assay: NCI tumour cell line growth inhibition, 48 h; in the data active = GI50 below about 0.43 µM; inactive = the rest
Possible outcomes: y (active), n (inactive)

[[record]]
smiles_record = "Cc1c(C(=O)N/N=C/c2ccc(O)cc2)nnn1-c1ccnc2c(C(F)(F)F)cccc12"
qualitative_label = "n"

[[record]]
smiles_record = "Cc1ccc(C)c(-n2c(-c3ccc(Br)cc3)csc2=NC(=O)c2ccccc2F)c1"
qualitative_label = "n"

[[record]]
smiles_record = "COc1ccc(/C=C\\c2cc(OC)c(OC)c(OC)c2)cc1NC(=O)[C@@H](N)CO"
qualitative_label = "y"


====

# reported TGI; entries follow
system: MOLT-4 leukemia; experiment: NCI tumour cell line growth inhibition, 48 h
OBSERVATION_TYPE: TGI

[[record]]
molecule = "COc1ccc(/C=C(\\C#N)n2nnc3cc(Cl)ccc32)cc1"
target_under_test = "MOLT-4 leukemia"
reported_value = "> 100 µM"

[[record]]
molecule = "NS(=O)(=O)c1ccc(NC(=S)/N=C/c2c(O)c3ccccc3[nH]c2=O)cc1"
target_under_test = "MOLT-4 leukemia"
reported_value = "> 100 µM"

[[record]]
molecule = "O=C(c1c(F)c(F)c(F)c(F)c1F)n1c(=O)[nH]c2ccccc21"
target_under_test = "MOLT-4 leukemia"
reported_value = "18.7 µM"

[[record]]
molecule = "COc1cccc(/C=C\\c2cc(OC)c(OC)c(OC)c2)c1"
target_under_test = "MOLT-4 leukemia"
reported_value = "18 µM"

[[record]]
molecule = "CCOC(=O)Oc1c(OC)cc(C(=O)c2ccc(OC)c(OC(=O)CCl)c2OC)cc1OC"
target_under_test = "MOLT-4 leukemia"
reported_value = "> 100 µM"

[[record]]
molecule = "N#C[C@]12CC3(CC[C@H]1CC1(C2)OCCO1)OCCO3"
target_under_test = "MOLT-4 leukemia"
reported_value = "> 100 µM"

[[record]]
molecule = "COc1ccc2c(c1)nc1n2C(c2c(F)cccc2F)SC1 (stereo not drawn)"
target_under_test = "MOLT-4 leukemia"
reported_value = "> 100 µM"

[[record]]
molecule = "CCOc1cc(NC(C)=O)ccc1C(=O)NN1C(=O)C(Cl)C1c1ccc(O)c(OC)c1 (stereo not drawn)"
target_under_test = "MOLT-4 leukemia"
reported_value = "19 µM"

[[record]]
molecule = "O=C(O)C(Cc1ccccc1-c1ccccc1)C(=O)O"
target_under_test = "MOLT-4 leukemia"
reported_value = "> 100 µM"

[[record]]
molecule = "COc1c2c(c(OC)c3c(=O)cc(C/C(=N/NC(=O)C[n+]4ccccc4)C(=O)Nc4cc(C)ccc4C)oc13)OCO2"
target_under_test = "MOLT-4 leukemia"
reported_value = "> 100 µM"

[[record]]
molecule = "O=C1CC2(CCCc3sccc32)C(=O)N1 (stereo not drawn)"
target_under_test = "MOLT-4 leukemia"
reported_value = "> 100 µM"

[[record]]
molecule = "COC(=O)/N=[N+](\\[O-])C(c1ccc(Cl)cc1)c1ccc(Cl)cc1"
target_under_test = "MOLT-4 leukemia"
reported_value = "> 100 µM"

[[record]]
molecule = "CC12CC(=O)OC(Cc3ccccc31)O2 (stereo not drawn)"
target_under_test = "MOLT-4 leukemia"
reported_value = "> 100 µM"

[[record]]
molecule = "CCOC(=O)c1csc(NC(=O)CN2CCCCC2)n1"
target_under_test = "MOLT-4 leukemia"
reported_value = "> 100 µM"

[[record]]
molecule = "COc1ccc2c(CN3CCC(CO)CC3)cc3cc4c(cc3c2c1)OCO4"
target_under_test = "MOLT-4 leukemia"
reported_value = "1.44 µM"

[[record]]
molecule = "Cn1cc(-c2nc(-c3c[nH]c4ncccc34)cs2)c2cc(Cl)ccc21"
target_under_test = "MOLT-4 leukemia"
reported_value = "> 100 µM"

[[record]]
molecule = "CN1NC2=NCCN=C3NN(C)C(=NCCN=C1S2)S3"
target_under_test = "MOLT-4 leukemia"
reported_value = "> 100 µM"

[[record]]
molecule = "COC(=O)CC(SCCO)SCCO"
target_under_test = "MOLT-4 leukemia"
reported_value = "> 100 µM"

